B1: KIAA0774 (parent)
chain: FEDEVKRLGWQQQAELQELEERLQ

variants of: B1; assay: protein stability index of a GFP-peptide fusion (GPS, HEK-293T) (PSI 1-6); higher = more stable; conditions: c terminus: a fixed tail appended;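 further: lentivirally expressed fusions sorted by FACS into six bins by GFP to DsRed ratio, PSI derived from sequencing read proportions per bin multiplied by bin number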
Could you label it 1.0 if measured protein stability index is 4 or higher, and 0.0 otherwise?

Take a look at these entries with their results.
mutation_key=Q11I qualitative_label=0.0
mutation_key=Q12C qualitative_label=0.0
mutation_key=A14E qualitative_label=1.0
mutation_key=E2H qualitative_label=0.0
mutation_key=A14P qualitative_label=1.0
mutation_key=A14H qualitative_label=1.0
mutation_key=L8V qualitative_label=1.0
mutation_key=G9A qualitative_label=0.0

Could you please find out whether E2F has protein stability index that meets 4 or exceeds it? 0.0

Check the entry L16S : does protein stability index equal or exceed 4? 1.0

Say whether E18A shows protein stability index of 4 or more. 0.0

Item Q11G with protein stability index of 4 or above? 1.0

Dear colleague, could you confirm whether E21K has protein stability index at or above 4? 1.0

hey, is protein stability index for this one >= 4? E21M 1.0

Identify whether the reported protein stability index of the following variant is 4 or greater: L23V 1.0

Data provenance is the supplement of paper PMC10567573.
